Catalogue of Kb readings, one per entry.
Target: Histamine H3 receptor (Homo sapiens, UniProt Q9Y5N1)
Sequence (Q9Y5N1 whole entry): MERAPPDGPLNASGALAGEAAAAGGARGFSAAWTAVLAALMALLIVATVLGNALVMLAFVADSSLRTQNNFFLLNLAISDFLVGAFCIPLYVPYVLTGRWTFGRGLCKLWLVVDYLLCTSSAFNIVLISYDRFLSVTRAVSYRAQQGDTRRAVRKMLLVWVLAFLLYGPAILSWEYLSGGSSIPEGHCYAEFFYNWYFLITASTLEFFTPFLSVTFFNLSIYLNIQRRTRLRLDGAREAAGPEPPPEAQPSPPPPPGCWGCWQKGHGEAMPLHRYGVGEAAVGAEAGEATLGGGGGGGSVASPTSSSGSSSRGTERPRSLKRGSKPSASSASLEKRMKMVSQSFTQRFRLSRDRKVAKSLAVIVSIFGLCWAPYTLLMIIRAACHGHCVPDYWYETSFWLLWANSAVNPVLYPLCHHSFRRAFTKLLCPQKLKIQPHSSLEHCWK
Assay: Antagonist activity at human histamine H3 receptor
Format: functional
Conditions: read-out: pA2 (converted)
The response must be a number in nM with no trailing unit.

Example entries and their recorded answers appear below.
# compound, unit of measurement, Kb
records = [
    ("CN1Cc2cc(OCCCN3CCC(F)CC3)ccc2C(c2cccc(Cl)c2)C1 (stereo unspecified)", "nM", 1.38),
    ("CN1Cc2cc(OCCCN3CCC(F)CC3)ccc2C(c2ccc(Cl)c(Cl)c2)C1 (stereo unspecified)", "nM", 33.1),
    ("COc1cccc(C2CN(C)Cc3cc(OCCCN4CCC(F)CC4)ccc32)c1 (stereo unspecified)", "nM", 0.851),
    ("CN1Cc2cc(OCCCN3CCC(F)CC3)ccc2C(c2ccccc2)C1 (stereo unspecified)", "nM", 0.724),
    ("COc1ccc(C2CN(C)Cc3cc(OCCCN4CCC(F)CC4)ccc32)cc1Cl (stereo unspecified)", "nM", 6.17),
]

query: # input compound: CN1Cc2cc(OCCCN3CCC(F)CC3)ccc2C(c2cc(Cl)ccc2Cl)C1 (stereo unspecified) ; wanted: its Kb
result: 4.57

query: # lookup: Kb of CN1Cc2cc(OCCCN3CCC(F)CC3)ccc2C(c2ccc(OC(F)F)cc2)C1 (stereo unspecified)
result: 4.37
